Consider the following variants and their measured protein stability index readings.
B1: KRT18 (parent)
chain: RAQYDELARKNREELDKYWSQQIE

# Variants of: B1
# experiment.summary: protein stability index of a GFP-peptide fusion (GPS, HEK-293T) (PSI 1-6); higher = more stable;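 further: lentivirally expressed fusions sorted by FACS into six bins by GFP to DsRed ratio, PSI derived from sequencing read proportions per bin multiplied by bin number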
# experimental.conditions: c terminus: a fixed tail appended

| variant.id | protein stability index |
| --- | --- |
| Q3D | 3.54 |
| A2R | 3.24 |
| K10D | 4.73 |
| A2F | 2.73 |
| E13R | 3.31 |
| Y4E | 3.57 |
| Y4I | 3.47 |
| Y18T | 4.57 |
| Y4A | 3.84 |
| I23T | 4.69 |
| Q3H | 2.54 |

Values were extracted from the supplement of paper PMC10567573.
